Please respond with reported pIC50 for every item in the list.
- ASSAY_METHOD_TEXT: Cytotoxicity against human RPTEC/TERT1 cells assessed as reduction in cell viability after 48 hrs by MTT assay
Hey, just a heads up that pIC50 is the negative log base 10 of the concentration in molar.

Prompt: Can you share its pIC50? I mean this molecule: CCOC(=O)c1s/c(=N\N=C2/C(=O)N(Cc3ccccc3)c3ccc(Cl)cc32)[nH]c1C
Response: 4.30

Prompt: # input molecule: CCN(CC)CCNC(=O)c1c(C)[nH]c(/C=C2\C(=O)Nc3ccc(F)cc32)c1C [SUNITINIB] ; wanted: its pIC50
Response: 4.77
